These entries and their values trace back to ChEMBL document CHEMBL6182949.

Target: CYP2C19 (Homo sapiens, UniProt P33261)
Sequence (P33261 whole entry): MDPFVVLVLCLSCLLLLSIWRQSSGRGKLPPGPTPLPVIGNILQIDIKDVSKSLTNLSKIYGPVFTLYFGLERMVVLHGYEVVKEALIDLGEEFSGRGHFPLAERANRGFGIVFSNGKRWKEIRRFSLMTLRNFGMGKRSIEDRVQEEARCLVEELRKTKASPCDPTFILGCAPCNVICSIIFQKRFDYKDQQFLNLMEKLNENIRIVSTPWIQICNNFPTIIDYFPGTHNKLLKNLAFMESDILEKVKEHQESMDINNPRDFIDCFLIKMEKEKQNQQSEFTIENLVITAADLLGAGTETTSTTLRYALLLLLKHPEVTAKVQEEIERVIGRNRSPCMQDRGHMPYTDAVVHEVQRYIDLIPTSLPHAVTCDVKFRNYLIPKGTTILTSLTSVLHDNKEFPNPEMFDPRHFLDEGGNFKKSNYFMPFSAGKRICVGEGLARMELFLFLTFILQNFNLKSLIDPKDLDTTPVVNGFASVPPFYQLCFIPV
Test: Inhibition of CYP2C19 in human liver microsome using (S)-mephenytoin as substrate at 10 uM preincubated for 5 mins followed by NADPH addition and measured after 30 mins by LC-MS/MS analysis relative to control
Assay type: ADME
Settings: human liver microsomes, probe (S)-mephenytoin, time 35 min
value kind: inhibition at 0.5 h, 10 µM (%)
Answer with a number only, understood to be in %.

Prompt line: // query inhibition at 0.5 h, 10 µM value for entry Cn1c(=O)n(C2CCC(=O)NC2=O)c2cccc(C#CCO[C@H]3CC[C@H](CN4CCC5(CC4)Cc4cc(NC(=O)c6coc7cccnc67)c(N6CCC(CO)CC6)cc4O5)CC3)c21 (stereo partly specified)
Response line: 45.1

---

Target: Protein cereblon/Interleukin-1 receptor-associated kinase 4 (Homo sapiens, UniProt Q9NWZ3+Q96SW2)
Sequence (Q9NWZ3 whole entry): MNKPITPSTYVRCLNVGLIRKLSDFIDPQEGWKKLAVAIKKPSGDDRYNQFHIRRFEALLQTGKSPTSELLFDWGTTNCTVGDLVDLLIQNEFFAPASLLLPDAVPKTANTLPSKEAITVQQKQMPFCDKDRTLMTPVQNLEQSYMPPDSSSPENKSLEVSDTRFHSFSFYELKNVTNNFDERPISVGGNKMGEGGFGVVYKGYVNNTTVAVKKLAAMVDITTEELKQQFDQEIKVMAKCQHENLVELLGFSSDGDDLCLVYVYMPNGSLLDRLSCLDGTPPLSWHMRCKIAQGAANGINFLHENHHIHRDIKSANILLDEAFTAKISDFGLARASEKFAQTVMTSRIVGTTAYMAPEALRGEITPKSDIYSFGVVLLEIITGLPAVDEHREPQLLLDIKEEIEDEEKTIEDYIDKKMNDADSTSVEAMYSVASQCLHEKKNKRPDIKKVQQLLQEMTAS
Sequence (Q96SW2 whole entry): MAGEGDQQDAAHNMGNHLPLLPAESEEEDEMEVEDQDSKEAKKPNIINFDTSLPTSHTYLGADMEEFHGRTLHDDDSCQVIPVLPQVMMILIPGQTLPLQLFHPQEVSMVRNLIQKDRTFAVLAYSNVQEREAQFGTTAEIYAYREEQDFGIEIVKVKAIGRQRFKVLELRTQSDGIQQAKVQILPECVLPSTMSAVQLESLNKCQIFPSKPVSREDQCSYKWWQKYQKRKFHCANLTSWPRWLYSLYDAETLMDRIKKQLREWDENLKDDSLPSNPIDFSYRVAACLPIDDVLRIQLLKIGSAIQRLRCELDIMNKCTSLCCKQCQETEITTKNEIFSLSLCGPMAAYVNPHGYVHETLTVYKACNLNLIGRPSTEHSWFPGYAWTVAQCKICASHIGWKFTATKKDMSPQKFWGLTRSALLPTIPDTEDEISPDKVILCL
Assay: PROTAC activity at CRBN/IRAK4 in human THP-1 cells assessed as induction of IRAK4 degradation incubated for 24 hrs by HiBiT lytic reagent based analysis
Format: cell-based
value kind: DC50 (nM)
Answer with a number only, understood to be in nM.

molecule	DC50 / nM
COCC1CCN(c2cc3c(cc2NC(=O)c2cnn4cccnc24)CC2(CCN(C[C@H]4CC[C@H](OCC#Cc5cccc6c5n(C)c(=O)n6C5CCC(=O)NC5=O)CC4)CC2)O3)CC1 (stereo partly drawn)	3.9
Cn1c(=O)n(C2CCC(=O)NC2=O)c2cccc(C#CCO[C@H]3CC[C@H](CN4CCC5(Cc6cc(NC(=O)c7cnn8cccnc78)c(N7CCC(CO)CC7)cc6O5)C4)CC3)c21 (stereo partly drawn)	2

# input for lookup
Prompt line: // query DC50 value for entry Cn1c(=O)n(C2CCC(=O)NC2=O)c2cccc(C#CCO[C@H]3CC[C@H](CN4CCC5(CC4)Cc4cc(NC(=O)c6cnn7cccnc67)c(N6CCC(CO)CC6)cc4O5)CC3)c21 (stereo partly drawn)
Response line: 2.65

---

Recorded inhibition at 3 µM for the following compounds
Target: hERG (KCNH2) (Homo sapiens, UniProt Q12809)
Sequence (Q12809 whole entry): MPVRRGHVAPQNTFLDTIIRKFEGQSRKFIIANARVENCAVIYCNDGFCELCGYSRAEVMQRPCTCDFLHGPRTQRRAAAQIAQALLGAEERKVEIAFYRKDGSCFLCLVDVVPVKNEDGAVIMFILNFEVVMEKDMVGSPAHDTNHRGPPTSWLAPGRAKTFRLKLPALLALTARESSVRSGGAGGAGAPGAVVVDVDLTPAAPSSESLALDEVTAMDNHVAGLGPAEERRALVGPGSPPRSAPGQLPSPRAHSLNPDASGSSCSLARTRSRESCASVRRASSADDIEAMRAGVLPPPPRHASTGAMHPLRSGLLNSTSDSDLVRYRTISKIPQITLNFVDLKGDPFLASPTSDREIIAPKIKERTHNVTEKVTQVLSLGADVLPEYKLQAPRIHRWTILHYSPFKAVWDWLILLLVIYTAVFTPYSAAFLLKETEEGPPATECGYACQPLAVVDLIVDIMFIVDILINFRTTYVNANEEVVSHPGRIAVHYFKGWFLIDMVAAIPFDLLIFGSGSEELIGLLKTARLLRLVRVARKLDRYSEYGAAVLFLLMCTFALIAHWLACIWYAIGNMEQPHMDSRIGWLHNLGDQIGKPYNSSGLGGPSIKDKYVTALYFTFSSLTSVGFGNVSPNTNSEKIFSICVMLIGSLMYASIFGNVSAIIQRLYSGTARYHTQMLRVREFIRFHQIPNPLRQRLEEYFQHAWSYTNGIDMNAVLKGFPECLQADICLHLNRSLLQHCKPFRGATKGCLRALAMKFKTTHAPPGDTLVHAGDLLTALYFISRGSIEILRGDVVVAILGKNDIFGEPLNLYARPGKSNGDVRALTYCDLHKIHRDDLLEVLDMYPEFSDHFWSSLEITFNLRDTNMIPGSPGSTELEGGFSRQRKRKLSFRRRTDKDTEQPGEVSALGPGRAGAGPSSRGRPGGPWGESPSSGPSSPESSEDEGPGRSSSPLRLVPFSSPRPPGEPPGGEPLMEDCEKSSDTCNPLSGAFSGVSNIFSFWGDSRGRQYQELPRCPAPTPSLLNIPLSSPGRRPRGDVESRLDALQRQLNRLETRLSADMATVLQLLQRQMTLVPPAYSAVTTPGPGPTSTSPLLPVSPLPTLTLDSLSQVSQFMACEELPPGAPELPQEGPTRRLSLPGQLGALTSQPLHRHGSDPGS
Assay: Inhibition of hERG expressed in HEK293 cells at 3 uM by manual patch clamp assay relative to control
Type: toxicity, cell-based
Details: HEK293 cells expressing hERG
Answer with a number only, understood to be in %.

Completed entries (count: 3):
compound	inhibition at 3 µM, %
Cn1c(=O)n(C2CCC(=O)NC2=O)c2cccc(C#CCO[C@H]3CC[C@H](CN4CCC5(CC4)Cc4cc(NC(=O)c6cnn7cc(Cl)cnc67)c(N6CCC(CO)CC6)cc4O5)CC3)c21 (some centres undefined)	2
Cc1cnc2c(C(=O)Nc3cc4c(cc3N3CCC(CO)CC3)OC3(CCN(C[C@H]5CC[C@H](OCC#Cc6cccc7c6n(C)c(=O)n7C6CCC(=O)NC6=O)CC5)CC3)C4)cnn2c1 (some centres undefined)	17
Cn1c(=O)n(C2CCC(=O)NC2=O)c2cccc(C#CCO[C@H]3CC[C@H](CN4CCC5(CC4)Cc4cc(NC(=O)c6cnn7cccnc67)c(N6CCC(O)CC6)cc4O5)CC3)c21 (some centres undefined)	35

Prompt line: // query inhibition at 3 µM value for entry Cn1c(=O)n(C2CCC(=O)NC2=O)c2cccc(C#CCO[C@H]3CC[C@H](CN4CCC5(CC4)Cc4cc(NC(=O)c6coc7cccnc67)c(N6CCC(CO)CC6)cc4O5)CC3)c21 (some centres undefined)
Response line: 53

---

Assay: AUClast in cynomolgus monkey at 20 mg/kg, po measured up to 24 hrs by LC-MS/MS analysis
Assay type: ADME, organism-based, Macaca fascicularis
Details: in vivo
value kind: AUC(0-t) at 24 h (µg·h/mL)
Answer with a number only, understood to be in µg·h/mL.

Prompt line: // query AUC(0-t) at 24 h value for entry Cn1c(=O)n(C2CCC(=O)NC2=O)c2cccc(C#CCO[C@H]3CC[C@H](CN4CCC5(CC4)Cc4cc(NC(=O)c6coc7cccnc67)c(N6CCC(CO)CC6)cc4O5)CC3)c21 (stereo partly specified)
Response line: 4

---

Assay: Cmax in Sprague-Dawley rat at 2 mg/kg, iv measured up to 24 hrs by LC-MS/MS analysis
Format: ADME, organism-based
Details: in vivo
value kind: Cmax (ng/mL)
Answer with a number only, understood to be in ng/mL.

Completed entries (count: 3):
molecule	Cmax / ng/mL
Cn1c(=O)n(C2CCC(=O)NC2=O)c2cccc(C#CCO[C@H]3CC[C@H](CN4CCC5(CC4)Cc4cc(NC(=O)c6cnn7cccnc67)c(N6CCC(O)CC6)cc4O5)CC3)c21 (some centres undefined)	696
Cn1c(=O)n(C2CCC(=O)NC2=O)c2cccc(C#CCO[C@H]3CC[C@H](CN4CCC5(CC4)Cc4cc(NC(=O)c6cnn7cccnc67)c(N6CCC(CO)CC6)cc4O5)CC3)c21 (some centres undefined)	1030
Cn1c(=O)n(C2CCC(=O)NC2=O)c2cccc(C#CCO[C@H]3CC[C@H](CN4CCC5(CC4)Cc4cc(NC(=O)c6coc7cccnc67)c(N6CCC(CO)CC6)cc4O5)CC3)c21 (some centres undefined)	14.2

Prompt line: // query Cmax value for entry Cn1c(=O)n(C2CCC(=O)NC2=O)c2cccc(C#CCO[C@H]3CC[C@H](CN4CCC5(CC4)Cc4cc(NC(=O)c6cnn7cc(F)cnc67)c(N6CCC(CO)CC6)cc4O5)CC3)c21 (some centres undefined)
Response line: 243

---

Assay: Half life in Sprague-Dawley rat at 10 mg/kg, po measured up to 24 hrs by LC-MS/MS analysis
Format: ADME, organism-based
Settings: in vivo
value kind: half-life (h)
Answer with a number only, understood to be in h.

compound	value kind	test result
Cn1c(=O)n(C2CCC(=O)NC2=O)c2cccc(C#CCO[C@H]3CC[C@H](CN4CCC5(CC4)Cc4cc(NC(=O)c6cnn7cccnc67)c(N6CCC(O)CC6)cc4O5)CC3)c21 (some centres undefined)	half-life	3.16
Cn1c(=O)n(C2CCC(=O)NC2=O)c2cccc(C#CCO[C@H]3CC[C@H](CN4CCC5(CC4)Cc4cc(NC(=O)c6cnn7cc(F)cnc67)c(N6CCC(CO)CC6)cc4O5)CC3)c21 (some centres undefined)	half-life	2.94
Cn1c(=O)n(C2CCC(=O)NC2=O)c2cccc(C#CCO[C@H]3CC[C@H](CN4CCC5(CC4)Cc4cc(NC(=O)c6cnn7cccnc67)c(N6CCC(CO)CC6)cc4O5)CC3)c21 (some centres undefined)	half-life	3.58

# input for lookup
Prompt line: // query half-life value for entry Cn1c(=O)n(C2CCC(=O)NC2=O)c2cccc(C#CCO[C@H]3CC[C@H](CN4CCC5(CC4)Cc4cc(NC(=O)c6coc7cccnc67)c(N6CCC(CO)CC6)cc4O5)CC3)c21 (some centres undefined)
Response line: 3.43

---

Recorded clearance for the following molecules
Experiment: Clearance in male C57BL/6 mouse at 2 mg/kg, iv measured up to 24 hrs by LC-MS/MS analysis
Type: ADME, organism-based
Details: in vivo
Answer with a number only, understood to be in mL/min/kg.

Prompt line: // query clearance value for entry Cn1c(=O)n(C2CCC(=O)NC2=O)c2cccc(C#CCO[C@H]3CC[C@H](CN4CCC5(CC4)Cc4cc(NC(=O)c6coc7cccnc67)c(N6CCC(CO)CC6)cc4O5)CC3)c21 (stereo not given in full)
Response line: 3.13

Prompt line: // query clearance value for entry Cn1c(=O)n(C2CCC(=O)NC2=O)c2cccc(C#CCO[C@H]3CC[C@H](CN4CCC5(CC4)Cc4cc(NC(=O)c6cnc7cccnn67)c(N6CCC(CO)CC6)cc4O5)CC3)c21 (stereo not given in full)
Response line: 9.75

Prompt line: // query clearance value for entry Cn1c(=O)n(C2CCC(=O)NC2=O)c2cccc(C#CCO[C@H]3CC[C@H](CN4CCC5(CC4)Cc4cc(NC(=O)c6cnn7cccnc67)c(N6CCC(CO)CC6)cc4O5)CC3)c21 (stereo not given in full)
Response line: 4.67

Prompt line: // query clearance value for entry Cn1c(=O)n(C2CCC(=O)NC2=O)c2cccc(C#CCO[C@H]3CC[C@H](CN4CCC5(CC4)Cc4cc(NC(=O)c6cnn7cccnc67)c(N6CCC(O)CC6)cc4O5)CC3)c21 (stereo not given in full)
Response line: 2.44

Prompt line: // query clearance value for entry Cn1c(=O)n(C2CCC(=O)NC2=O)c2cccc(C#CCO[C@H]3CC[C@H](CN4CCC5(CC4)Cc4cc(NC(=O)c6cnn7cc(F)cnc67)c(N6CCC(CO)CC6)cc4O5)CC3)c21 (stereo not given in full)
Response line: 2.83

---

Experiment: Cmax in cynomolgus monkey at 20 mg/kg, po measured up to 24 hrs by LC-MS/MS analysis
Assay type: ADME, organism-based, Macaca fascicularis
Details: in vivo
value kind: Cmax

Prompt line: // query Cmax value for entry Cn1c(=O)n(C2CCC(=O)NC2=O)c2cccc(C#CCO[C@H]3CC[C@H](CN4CCC5(CC4)Cc4cc(NC(=O)c6coc7cccnc67)c(N6CCC(CO)CC6)cc4O5)CC3)c21 (stereo partly specified)
Response line: 229 ng/mL
